- Test system: MYC mRNA expression in SU-DHL-4 cells
- EXPERIMENT: Suppressive effect on MYC mRNA expression (Test Example 2)
- Assay type: cell-based, human
- CONDITIONS: test compound 100 nmol/L, 6 hours, qRT-PCR corrected by ACTB, GAPDH, HPRT1
PROPERTY LABEL: Suppression Rate of MYC mRNA Expression (%)
Report as a plain number; the unit % is understood.

See these solved cases before continuing.
CCC(=O)N1c2ccccc2[C@H](Nc2ccc(NC(=O)N3CCN(C(=O)C4CCC(N[C@@H]5C[C@H](C)N(C(=O)CC)c6ccccc65)CC4)CC3)cc2)C[C@@H]1C (stereo partly drawn) [Compound 7p] :: 97.9
CCC(=O)N1c2ccccc2[C@H](Nc2ccc(NC(=O)CCCC(=O)NC3CCC(N[C@@H]4C[C@H](C)N(C(=O)CC)c5ccccc54)CC3)cc2)C[C@@H]1C (stereo partly drawn) [Compound 7o] :: 97.4
CCC(=O)N1c2ccccc2[C@H](N[C@H]2CC[C@H](NC(=O)C#CCNC(=O)[C@H]3CC[C@H](N[C@@H]4C[C@H](C)N(C(=O)CC)c5ccccc54)CC3)CC2)C[C@@H]1C (relative stereo) [Compound 9d] :: 98.0

Exercise: Please give the documented Suppression Rate of MYC mRNA Expression (%) of CCC(=O)N1c2ccccc2[C@H](Nc2ccc(NC(=O)CCCC(=O)Nc3ccc(Cn4c(C(=O)OCCN(C)C)cc5c4CCCC5=O)cc3)cc2)C[C@@H]1C [Compound 15a]
Key: 97.6

Exercise: Tell me its Suppression Rate of MYC mRNA Expression (%) given CCC(=O)N1c2ccccc2[C@H](Nc2ccc(C(=O)NCCCNC(=O)c3ccc(C4=N[C@@H](CC(=O)OCCCOC)c5nnc(C)n5-c5sc(C)c(C)c54)cc3)cc2)C[C@@H]1C [Compound 13h] as the entry.
Key: 97.4

Exercise: Answer with the recorded Suppression Rate of MYC mRNA Expression (%) for the molecule listed here: CCNC(=O)C[C@@H]1N=C(c2ccc(SCCCCSc3ccc(C4=N[C@@H](CC(=O)NCC)c5nnc(C)n5-c5ccc(OC)cc54)cc3)cc2)c2cc(OC)ccc2-n2c(C)nnc21 [compound 1, reference compound]
Key: 61.7

---

- System: SU-DHL-4 cells
- EXPERIMENT: Inhibitory effect on cell viability in SU-DHL-4 cell line (Test Example 1)
- Format: cell-based, human
- CONDITIONS: SU-DHL-4 cells, 72 hours, Cell Counting Kit-8; concentration showing 90% inhibition of cell viability; read-out: SU-DHL-4 Cell Viability Inhibition Rate IC90
PROPERTY LABEL: log10(IC90) (log10 of the value in nM)
Response schema: value (number) is log10 of IC90 in units of nM.

Look over these answered cases.
CCC(=O)N1c2ccccc2[C@H](Nc2ccc(Cn3cc(C(=O)N[C@H]4CC[C@H](N[C@@H]5C[C@H](C)N(C(=O)CC)c6ccccc65)CC4)nn3)cc2)C[C@@H]1C [Compound 8f] :: 0.06
CCC(=O)N1c2ccccc2[C@H](Nc2ccc(C(=O)N3CC(C(=O)N[C@H]4CC[C@H](N[C@@H]5C[C@H](C)N(C(=O)CC)c6ccccc65)CC4)C3)cc2)C[C@@H]1C [Compound 8r] :: -0.33
CCC(=O)N1c2ccccc2[C@@H](Nc2ccc(-n3cc(CNC(=O)C4CCC(N[C@@H]5C[C@H](C)N(C(=O)CC)c6ccccc65)CC4)nn3)cn2)C[C@H]1C (relative stereo) [Compound 17h] :: -0.70
CCC(=O)N1c2ccccc2[C@H](Nc2ccc(NC(=O)N3CCN(C(=O)C4CCC(N[C@@H]5C[C@H](C)N(C(=O)CC)c6ccccc65)CC4)CC3)cc2)C[C@@H]1C (stereo partly drawn) [Compound 7p] :: -0.10
CCC(=O)N1c2ccccc2[C@H](Nc2ccc(-c3cnn(CC(=O)NC4CCC(N[C@@H]5C[C@H](C)N(C(=O)CC)c6ccccc65)CC4)c3)cc2)C[C@@H]1C (relative stereo) [Compound 9b] :: 0.50

Alright, here's another compound for you.
Exercise: Given the compound CCC(=O)N1c2ccccc2[C@H](Nc2ccc(C(=O)NCCCNC(=O)c3ccc(C4=N[C@@H](CC(=O)OCCCOC)c5nnc(C)n5-c5sc(C)c(C)c54)cc3)cc2)C[C@@H]1C [Compound 13h] , write its reported log10(IC90).
Key: -0.47

---

- System: SU-DHL-4 cells
- EXPERIMENT: Inhibitory effect on cell viability in SU-DHL-4 cell line (Test Example 1)
- Assay type: cell-based, human
- CONDITIONS: Homo sapiens; SU-DHL-4 cells, 72 hours, Cell Counting Kit-8; concentration showing 90% inhibition of cell viability; read-out: SU-DHL-4 Cell Viability Inhibition Rate IC90
Entries are sorted into classes by IC90 as follows: zone 1: < 0.9 nM; zone 2: ≥ 0.9 nM and < 2 nM; zone 3: ≥ 2 nM

Exercise: For the record CCC(=O)N1c2ccccc2[C@H](Nc2ccc(-c3nnc(CNC(=O)N4CCN(Cc5cc(O)cc(-c6c(C)noc6C)c5)CC4)o3)cc2)C[C@@H]1C [Compound 16c] , report the class its IC90 corresponds to.
Key: zone 1

Exercise: Please indicate the class for CCC(=O)N1c2ccccc2[C@H](Nc2ccc(NC(=O)CCCC(=O)Nc3ccc(OCCN4CCN(C)C(=O)[C@H]4C)cc3)cc2)C[C@@H]1C [Compound 16e] based on its IC90.
Key: zone 3

Exercise: Consider CCC(=O)N1c2ccccc2[C@H](Nc2ccc(-n3cc(CNC(=O)c4cccc(Oc5ccccc5-c5cn(C)c(=O)cc5OC)c4)nn3)cc2)C[C@@H]1C [Compound 17d] . To which IC90 class does it belong?
Key: zone 1

Exercise: Where would CCC(=O)N1c2ccccc2[C@H](Nc2ccc(NC(=O)NCC(=O)NC3CCN(Cc4cc(O)cc(-c5c(C)noc5C)c4)CC3)cc2)C[C@@H]1C [Compound 17j] land among the classes by reported IC90?
Key: zone 3

Exercise: Classify this molecule: CCC(=O)N1c2ccccc2[C@H](Nc2ccc(-c3cnn(CCNC(=O)C4CCN(Cc5cc(O)cc(-c6c(C)noc6C)c5)CC4)c3)cc2)C[C@@H]1C [Compound 17i]
Key: zone 2

Exercise: Consider CCC(=O)N1c2ccccc2[C@H](Nc2ccc(CNCc3cn(-c4ccc(N[C@@H]5C[C@H](C)N(C(=O)CC)c6ccccc65)nc4)nn3)cc2)C[C@@H]1C [Compound 17e] . To which IC90 class does it belong?
Key: zone 2

Exercise: GET /class?item= CCC(=O)N1c2ccccc2[C@H](Nc2ccc(-n3cc(CNC(=O)C4CCN(Cc5cc(O)cc(-c6c(C)noc6C)c5)CC4)nn3)cc2)C[C@@H]1C [Compound 16d]
Key: zone 1

Exercise: Just checking, what class would you give CCC(=O)N1c2ccccc2[C@H](Nc2ccc(NC(=O)CCCC(=O)NC34CC(NCc5cc(O)cc(-c6c(C)noc6C)c5)(C3)C4)cc2)C[C@@H]1C [Compound 16i] here?
Key: zone 3

Exercise: Could you place CCC(=O)N1c2ccccc2[C@H](NCC23CCC(C(=O)N4CC(C(=O)Nc5ccc(N[C@@H]6C[C@H](C)N(C(=O)CC)c7ccccc76)cc5)C4)(CC2)CC3)C[C@@H]1C (relative stereo) [Compound 17o] in its proper category? Many thanks.
Key: zone 3

---

- Tested on: MYC mRNA expression in SU-DHL-4 cells
- EXPERIMENT: Suppressive effect on MYC mRNA expression (Test Example 2)
- Assay type: cell-based, human
- CONDITIONS: test compound 100 nmol/L, 6 hours, qRT-PCR corrected by ACTB, GAPDH, HPRT1
Overview of reported Suppression Rate of MYC mRNA Expression (%) across a group of compounds:
Numeric only. Scale: %

Example entries begin here.
CCC(=O)N1c2ccccc2[C@H](Nc2ccc(NC(=O)C#CCNC(=O)C3CCC(N[C@@H]4C[C@H](C)N(C(=O)CC)c5ccccc54)CC3)cc2)C[C@@H]1C (relative stereo) [Compound 8g] :: 96.6
CCC(=O)N1c2ccccc2[C@H](Nc2ccc(C(=O)NCCNS(=O)(=O)c3ccc(N[C@@H]4C[C@H](C)N(C(=O)CC)c5ccccc54)cc3)cc2)C[C@@H]1C [Compound 4d] :: 98.3

Exercise: # return recorded Suppression Rate of MYC mRNA Expression (%) for input CCC(=O)N1c2ccccc2[C@H](Nc2ccc(CCC(=O)NCC3(NC4CCC(N[C@@H]5C[C@H](C)N(C(=O)CC)c6ccccc65)CC4)COC3)cc2)C[C@@H]1C (stereo partly drawn) [Compound 7h]
Key: 97.5

---

- System: SU-DHL-4 cells
- EXPERIMENT: Inhibitory effect on cell viability in SU-DHL-4 cell line (Test Example 1)
- Assay type: cell-based, human
- CONDITIONS: SU-DHL-4 cells, 72 hours, Cell Counting Kit-8; concentration showing 90% inhibition of cell viability; read-out: SU-DHL-4 Cell Viability Inhibition Rate IC90
PROPERTY LABEL: IC90
Quote the value and follow it with the unit of measurement.

Solved cases (4 shown):
CCC(=O)N1c2ccccc2[C@H](Nc2ccc(NC(=O)CCCC(=O)NC3CCCN(Cc4ccc(NS(=O)(=O)CC)cc4-c4cn(C)c(=O)cc4OC)C3)cc2)C[C@@H]1C (stereo partly drawn) [Compound 16f] :: 24.6 nM
CCC(=O)N1c2ccccc2[C@H](Nc2ccc(-c3cn4c(n3)CN(C(=O)C3CCC(N[C@@H]5C[C@H](C)N(C(=O)CC)c6ccccc65)CC3)CC4)cc2)C[C@@H]1C (relative stereo) [Compound 7b] :: 1.51 nM
CCC(=O)N1c2ccccc2[C@H](Nc2ccc(C(=O)NCCCNC(=O)c3ccc(C4=N[C@@H](CC(=O)OCCN(C)C)c5nnc(C)n5-c5sc(C)c(C)c54)cc3)cc2)C[C@@H]1C [Compound 13c] :: 7.36 nM
CCC(=O)N1c2ccccc2[C@H](Nc2ccc(NC(=O)C3CN(C(=O)[C@H]4CC[C@H](N[C@@H]5C[C@H](C)N(C(=O)CC)c6ccccc65)CC4)C3)cc2)C[C@@H]1C [Compound 8c] :: 0.26 nM

Exercise: Let me know recorded IC90 for CCC(=O)N1c2ccccc2[C@H](N[C@H]2CC[C@H](NC(=O)C#CCNC(=O)[C@H]3CC[C@H](N[C@@H]4C[C@H](C)N(C(=O)CC)c5ccccc54)CC3)CC2)C[C@@H]1C (relative stereo) [Compound 9d] , thanks.
Key: 0.93 nM

Exercise: Give the reported value of IC90 for this record: CCC(=O)N1c2ccccc2[C@H](Nc2ccc(C(=O)NCCCNC(=O)c3ccc(C4=N[C@@H](CC(=O)N5CCN(CCO)CC5)c5nnc(C)n5-c5sc(C)c(C)c54)cc3)cc2)C[C@@H]1C [Compound 13f]
Key: 11.6 nM

Where do the numbers come from? From patent US20220378923A1.
